Details: 1026 K; Crystal; Torsion effusion method
# reported vapor or sublimation pressure; entries follow

Molecule	vapor or sublimation pressure [kPa]
[I][Yb][I] [ytterbium(II) iodide]	0.000132
[Br-].[Br-].[Br-].[Lu+3] [lutetium tribromide]	0.004074
[Br][Yb]([Br])[Br] [ytterbium tribromide]	0.005012
[Cl][Yb]([Cl])[Cl] [ytterbium trichloride]	0.001622

----------
Conditions: 978 K; Crystal; Torsion effusion method

Compound	vapor or sublimation pressure (kPa)
[I][Yb][I] [ytterbium(II) iodide]	3.8e-05
[Cl][Lu]([Cl])[Cl] [lutetium trichloride]	0.000251
[I][Lu]([I])[I] [lutetium triiodide]	0.002455
[Br][Yb]([Br])[Br] [ytterbium tribromide]	0.001585
